Listed next: entries and their corresponding Emax.
Target: Probable G-protein coupled receptor 139 (Rattus norvegicus)
Sequence (whole entry): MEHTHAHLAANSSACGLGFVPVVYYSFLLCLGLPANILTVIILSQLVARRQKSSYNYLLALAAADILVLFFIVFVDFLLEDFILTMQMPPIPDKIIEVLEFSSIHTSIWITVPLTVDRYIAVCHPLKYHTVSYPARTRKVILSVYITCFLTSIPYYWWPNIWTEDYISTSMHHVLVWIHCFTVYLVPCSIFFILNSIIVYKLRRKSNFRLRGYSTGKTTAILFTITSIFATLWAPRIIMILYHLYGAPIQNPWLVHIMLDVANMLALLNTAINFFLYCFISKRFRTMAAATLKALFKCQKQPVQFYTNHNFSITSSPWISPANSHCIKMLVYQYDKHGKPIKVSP
Test: Agonist activity at rat GPR139 expressed in CHO-K1 cells assessed as increase in calcium flux by calcium 5 dye based FLIPR assay relative to JNJ63533054
Assay type: cell-based
Conditions: filed as agonist
Field format: number, assumed %, no unit text.

Take a look at these entries with their results.
C[C@H](NC(=O)[C@@H](C)n1nc2ncccn2c1=O)c1ccc(Cl)c(F)c1 50
C[C@H](NC(=O)Cn1nc2ncc(C3CC3)cn2c1=O)c1ccc(Cl)c(F)c1 50
C[C@H](NC(=O)Cn1nc2cc(C#N)ccn2c1=O)c1ccc(Cl)c(F)c1 50
C[C@H](NC(=O)Cn1nc2ccccn2c1=O)c1ccc(OC(F)F)c(F)c1 50
COc1ccn2c(=O)n(CC(=O)N[C@@H](C)c3ccc(Cl)cc3)nc2n1 50

Prompt: Please tell me: Emax of `Cc1ccc([C@H](C)NC(=O)Cn2nc3cc(C)ccn3c2=O)cc1` , system Probable G-protein coupled receptor 139 (Rattus norvegicus)?
Completion: 50

Prompt: Provide value of Emax for this record tested with Probable G-protein coupled receptor 139 (Rattus norvegicus): `C[C@H](NC(=O)Cn1nc2c(NC3COC3)nccn2c1=O)c1ccc(Cl)c(F)c1`
Completion: 50

Prompt: Query the reported Emax for Probable G-protein coupled receptor 139 (Rattus norvegicus); item: `O=C(Cn1nc2cccnn2c1=O)NC1(c2cccc(Cl)c2)CC1`
Completion: 50

Prompt: Report Emax for `COc1cccc2nn(CC(=O)N[C@@H](C)c3ccc(Cl)cc3)c(=O)n12` tested on Probable G-protein coupled receptor 139 (Rattus norvegicus).
Completion: 50

Prompt: Record lookup: for Probable G-protein coupled receptor 139 (Rattus norvegicus), what Emax belongs to `Cc1ccc([C@H](C)NC(=O)Cn2nc3ccc(C)cn3c2=O)cc1` ?
Completion: 50
